This collection of values is drawn from ChEMBL document CHEMBL1133431.

Target: Prostaglandin G/H synthase 2 (Homo sapiens, UniProt P35354)
Experiment: Inhibitory activity against human prostaglandin G/H synthase 2 in ECV-304 cells measured by the presence of PGE-2
parameter.measured: IC50 (nM)

The cases that follow already have their IC50 on record.
| molecule | IC50 [nM] |
| --- | --- |
| O=C(NNc1ccc(Cl)cc1)c1ccccc1 | 530 |
| COc1ccc(-n2nc(-c3ccc(Cl)cc3)c3c2CCC(O)C3)cc1 (configuration not stated) | 460 |
| Cc1ccc(NNC(=O)c2ccc(Cl)cc2)cc1 | 10 |
| O=C(NNc1ccccc1)c1ccc(Cl)cc1 | 330 |

A: O=C(NNc1ccc(Cl)cc1)c1ccc(Cl)cc1
B: O=C(NNc1ccccc1)c1ccccc1
*Q* Pick one: A or B . Which has the bigger IC50 number? // return label of chosen record
*A* B

###

Items are presented alongside their recorded pIC50.
Molecular target: Prostaglandin G/H synthase 2 (Homo sapiens, UniProt P35354)
Sequence (P35354 whole entry): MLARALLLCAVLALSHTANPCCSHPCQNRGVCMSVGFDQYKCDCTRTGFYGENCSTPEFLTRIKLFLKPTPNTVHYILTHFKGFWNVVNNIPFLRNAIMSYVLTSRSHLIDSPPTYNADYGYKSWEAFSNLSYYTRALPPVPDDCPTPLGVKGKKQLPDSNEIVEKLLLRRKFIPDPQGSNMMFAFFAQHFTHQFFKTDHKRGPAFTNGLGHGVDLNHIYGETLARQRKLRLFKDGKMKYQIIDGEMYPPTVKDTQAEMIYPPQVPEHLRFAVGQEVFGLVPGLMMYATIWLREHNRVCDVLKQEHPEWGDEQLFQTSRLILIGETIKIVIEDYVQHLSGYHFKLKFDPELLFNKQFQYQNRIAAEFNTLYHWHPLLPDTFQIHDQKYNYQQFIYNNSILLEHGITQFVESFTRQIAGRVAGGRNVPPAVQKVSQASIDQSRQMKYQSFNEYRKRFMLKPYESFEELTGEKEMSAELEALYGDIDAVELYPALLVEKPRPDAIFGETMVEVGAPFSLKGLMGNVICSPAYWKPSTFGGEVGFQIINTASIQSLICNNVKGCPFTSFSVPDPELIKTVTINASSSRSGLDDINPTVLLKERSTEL
Assay: Inhibitory activity against human prostaglandin G/H synthase 2 in ECV-304 cells measured by the presence of PGE-2
pIC50: −log10 of the molar value.

| mol | pIC50 |
| --- | --- |
| CS(=O)(=O)c1ccc(-n2nc(-c3ccc(Cl)cc3)c3c2CCCCC3)cc1 | < 5.00 |

*Q* Quick one: pIC50 of "Clc1ccc(-c2nn(-c3ccc(Cl)cc3)c3c2CCC3)cc1" ?
*A* < 5.00

*Q* If you can, please state the reported pIC50 value of "CS(=O)(=O)c1ccc(-n2nc(-c3ccc(Cl)cc3)c3c2CCCC3)cc1" .
*A* < 5.00

###

Below: a set of entries, each annotated with reported IC50.
Biological target: Prostaglandin G/H synthase 2 (Homo sapiens, UniProt P35354)
Experiment: Inhibitory activity against human prostaglandin G/H synthase 2 in ECV-304 cells measured by the presence of PGE-2

For orientation, consider the following solved cases.
| mol | observed |
| --- | --- |
| COc1ccc(C(=O)NNc2ccccc2)cc1 | > 10 µM |
| CS(=O)(=O)c1ccc(NNC(=O)c2ccc(Cl)cc2)cc1 | > 10 µM |

Kindly review the next molecule as well.
*Q* Can you share its IC50? I mean this molecule: "CS(=O)(=O)c1ccc(-n2nc(-c3ccc(F)cc3)c3c2CCCC3)cc1"
*A* > 10 µM
